# tgt: PDE4B (human recombinant) (Homo sapiens)
# Construct: made in house
# Sequence (Q07343 1-564 isoform Q07343-2): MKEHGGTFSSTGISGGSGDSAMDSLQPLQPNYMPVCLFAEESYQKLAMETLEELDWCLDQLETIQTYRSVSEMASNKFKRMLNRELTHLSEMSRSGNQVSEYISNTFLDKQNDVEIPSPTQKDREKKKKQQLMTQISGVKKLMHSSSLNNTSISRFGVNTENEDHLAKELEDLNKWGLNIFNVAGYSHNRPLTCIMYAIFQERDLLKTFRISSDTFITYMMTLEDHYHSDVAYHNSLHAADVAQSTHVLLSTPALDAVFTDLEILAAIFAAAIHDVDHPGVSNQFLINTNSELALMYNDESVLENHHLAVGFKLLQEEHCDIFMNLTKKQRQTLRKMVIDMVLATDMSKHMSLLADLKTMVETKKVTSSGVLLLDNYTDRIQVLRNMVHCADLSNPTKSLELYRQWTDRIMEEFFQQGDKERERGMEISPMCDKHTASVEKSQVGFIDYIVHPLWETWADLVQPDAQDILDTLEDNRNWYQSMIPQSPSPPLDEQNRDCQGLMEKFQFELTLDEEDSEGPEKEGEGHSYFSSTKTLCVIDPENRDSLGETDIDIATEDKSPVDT
# testDescription: Inhibition of PDE4B activity: radioactive SPA or IMAP Fluorescence Polarisation (FP) assay
# Format: biochemical
# conditionDetails: PDE4B inhibitory activity, one reading or average of ca. 2-6 readings, read-out: PDE4B pIC50 (± about 0.5) (converted)
Measured IC50 by item

Use these answered entries as a reference point.
CCn1ncc2c(NC3CCC(=O)CC3)c(C(=O)NCc3ccc(C(F)(F)F)cc3)cnc21 0.1 to 6.31 nM
CCn1ncc2c(NC3CCC(=O)CC3)c(C(=O)NCc3ccc(C)c(C)c3)cnc21 0.1 to 6.31 nM
CCn1ncc2c(NC3CCC(=O)CC3)c(C(=O)NCc3ccc(C)cc3C)cnc21 0.1 to 6.31 nM

What does the record list as IC50 for `CCn1ncc2c(NC3CCC(=O)CC3)c(C(=O)NC3Cc4ccccc4C3)cnc21` ?
0.1 to 6.31 nM

Can you share its IC50? I mean this compound: `CCn1ncc2c(NC3CCCC3)c(C(=O)Nc3ccc(F)cc3)cnc21`
12.6 to 100 nM

Item `CCOC(=O)c1cnc2c(cnn2C)c1NC1CCCC1` has what recorded IC50?
251 nM

Bench note: what IC50 did `CCn1ncc2c(NC3CCOCC3)c(C(=O)NCc3nccs3)cnc21` show?
12.6 to 100 nM

# IC50 lookup, item `CCn1ncc2c(NC3CCC(=O)CC3)c(C(=O)NCc3ccc(Cl)cc3C)cnc21`
0.1 to 6.31 nM
